All values here come from patent US6300501A.

System: H61 cells: NIH transformed 3T3 H-ras cells
Experiment: Clonogenic assay (6 well plates, soft agar)
Assay type: cell-based
Details: 312 h, colonies counted after Day 13, read-out: Clonogenic Assay IC50
// NB: equality with 500 nM counts as not satisfied; only IC50 strictly below is satisfied

- CC(CNC(=O)CN(Cc1ccc(OCc2ccccc2)cc1)C(=O)[C@H](Cc1c[nH]cn1)NC(=O)OCc1ccccc1)c1ccccc1Cl (some centres unmarked) [Example 32]: satisfied
- CC(C)(CNC(=O)CN(Cc1ccc(-c2ccccc2)cc1)C(=O)[C@H](Cc1c[nH]cn1)NC(=O)OCc1ccccc1)c1ccccc1 [Example 52]: not satisfied
- CC(C)(CNC(=O)CN(Cc1ccc(OCc2cccnc2)cc1)C(=O)[C@H](Cc1c[nH]cn1)NC(=O)OCc1ccccc1)c1ccccc1 [Example 50]: satisfied
- COc1ccccc1CN(CC(=O)NCC(C)c1ccccc1)C(=O)[C@H](Cc1c[nH]cn1)NC(=O)OCc1ccccc1 (some centres unmarked) [Example 33]: satisfied
- CC(CNC(=O)CN(Cc1ccccc1Cl)C(=O)[C@H](Cc1c[nH]cn1)NC(=O)OCc1ccccc1)c1ccccc1 (some centres unmarked) [Example 28]: not satisfied
- CC(CNC(=O)CN(Cc1ccc(Cl)cc1)C(=O)[C@H](Cc1c[nH]cn1)NC(=O)OCc1ccccc1)c1ccccc1 (some centres unmarked) [Example 13]: not satisfied
- CC(C)(CNC(=O)CN(Cc1ccc(OCc2ccncc2)cc1)C(=O)[C@H](Cc1c[nH]cn1)NC(=O)OCc1ccccc1)c1ccccc1 [Example 49]: satisfied
- Cc1ccc(CN(CC(=O)NCC(C)c2ccccc2)C(=O)[C@H](Cc2c[nH]cn2)NC(=O)OCc2ccccc2)cc1 (some centres unmarked) [Example 19]: not satisfied
